# Streptococcus faecalis (Hoshi): MIC values follow
Mention the unit after the number when you answer.

CC1(C)S[C@@H]2[C@H](NC(=O)C(C(=O)O)c3ccccc3)C(=O)N2[C@H]1C(=O)O (stereo partly drawn) [CB-PC, disodium-α-carboxybenzyl penicillin] | 50 µg/mL

// each compound listed below needs its MIC
1. Cc1nnc(SCC2=C(C(=O)O)N3C(=O)C(NC(=O)[C@H](NC(=O)c4cnc5c(c4O)C(=O)CCC5)c4ccc(O)cc4)C3SC2)s1 (single isomer, unassigned) [Synthesis Example 2]
2. Cc1nnc(SCC2=C(C(=O)O)N3C(=O)[C@@H](NC(=O)Cn4cnnn4)[C@H]3SC2)s1
3. CC(=O)OCC1=C(C(=O)O)N2C(=O)C(NC(=O)[C@H](NC(=O)c3cnc4c(c3O)C(=O)CCC4)c3ccc(O)cc3)C2SC1 (single isomer, unassigned) [Synthesis Example 1]

12.5 µg/mL
25 µg/mL
25 µg/mL
